Target: Recombinant human JARID1B/KDM5B (Homo sapiens, UniProt Q9UGL1)
Construct: purchased Active Motif 31432; host or cells: Sf9 insect cells
Sequence (Q9UGL1 whole entry): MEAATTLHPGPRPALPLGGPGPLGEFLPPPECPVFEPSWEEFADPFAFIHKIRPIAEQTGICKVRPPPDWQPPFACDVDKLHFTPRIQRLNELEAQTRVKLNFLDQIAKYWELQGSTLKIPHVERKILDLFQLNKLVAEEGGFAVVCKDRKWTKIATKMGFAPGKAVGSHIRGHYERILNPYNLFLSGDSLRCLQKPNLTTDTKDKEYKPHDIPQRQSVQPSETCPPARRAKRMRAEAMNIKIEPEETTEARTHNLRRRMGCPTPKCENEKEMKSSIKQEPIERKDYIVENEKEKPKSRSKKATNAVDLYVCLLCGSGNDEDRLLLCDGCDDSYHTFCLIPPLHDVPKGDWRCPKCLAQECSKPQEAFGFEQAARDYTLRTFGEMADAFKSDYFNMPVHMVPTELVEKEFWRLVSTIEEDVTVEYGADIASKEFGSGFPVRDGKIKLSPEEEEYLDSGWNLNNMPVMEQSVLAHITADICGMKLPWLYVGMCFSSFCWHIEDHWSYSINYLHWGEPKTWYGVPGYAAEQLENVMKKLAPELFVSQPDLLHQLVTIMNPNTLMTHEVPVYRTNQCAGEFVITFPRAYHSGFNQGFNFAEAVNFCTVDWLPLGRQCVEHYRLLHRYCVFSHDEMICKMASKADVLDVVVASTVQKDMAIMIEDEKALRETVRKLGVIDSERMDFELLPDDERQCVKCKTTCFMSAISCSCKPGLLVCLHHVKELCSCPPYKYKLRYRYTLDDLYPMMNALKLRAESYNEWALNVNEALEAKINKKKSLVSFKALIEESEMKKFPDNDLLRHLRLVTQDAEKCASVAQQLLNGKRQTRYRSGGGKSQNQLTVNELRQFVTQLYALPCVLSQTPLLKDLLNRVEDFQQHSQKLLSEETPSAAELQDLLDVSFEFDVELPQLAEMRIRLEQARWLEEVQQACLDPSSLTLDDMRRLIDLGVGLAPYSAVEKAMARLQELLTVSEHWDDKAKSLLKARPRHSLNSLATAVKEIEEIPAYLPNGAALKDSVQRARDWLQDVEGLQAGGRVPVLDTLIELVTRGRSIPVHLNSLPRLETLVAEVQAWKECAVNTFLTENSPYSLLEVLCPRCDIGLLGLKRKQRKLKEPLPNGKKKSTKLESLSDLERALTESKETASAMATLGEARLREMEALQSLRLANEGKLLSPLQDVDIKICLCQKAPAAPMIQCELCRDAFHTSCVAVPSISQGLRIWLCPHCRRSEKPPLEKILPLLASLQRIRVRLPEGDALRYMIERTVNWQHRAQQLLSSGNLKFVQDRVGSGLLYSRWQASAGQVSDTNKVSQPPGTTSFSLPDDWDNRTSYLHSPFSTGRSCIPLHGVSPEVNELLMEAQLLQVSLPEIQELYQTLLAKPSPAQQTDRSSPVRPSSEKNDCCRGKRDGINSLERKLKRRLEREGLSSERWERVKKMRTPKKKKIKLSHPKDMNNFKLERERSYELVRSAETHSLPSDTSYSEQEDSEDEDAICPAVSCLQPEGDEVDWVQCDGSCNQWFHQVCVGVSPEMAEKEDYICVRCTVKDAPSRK
Test: LANCE Ultra TR-FRET demethylase assay with FLAG-tagged JARID1B
Assay type: biochemical
Conditions: 100 nM compound; 500 nM biotinylated H3K4me3 peptide substrate
Description: FLAG-tagged JARID1B (also known as KDM5B) protein was screened against more than 170 compounds. For this compound screening, LANCE Ultra time-resolved fluorescence resonance energy transfer (TR-FRET) assay was employed using an europoium (Eu)-labeled antibody that can specifically recognize mono- or dimethylated peptides (H3K4me2/1) and ULight-streptavidin (ULight-SA), a small molecule fluorescent dye. […]
# inhibition at 0.1 µM listing for each entry below

Solved entries:
>  <compound>
O=c1[nH]c(COc2ccc(F)cc2F)nc2c(CNCC3CCNCC3)nccc12 [Example 124]

>  <target>
Recombinant human JARID1B/KDM5B (Homo sapiens, UniProt Q9UGL1)

>  <inhibition at 0.1 µM>
20 to 50%

$$$$
>  <compound>
O=c1[nH]c(COc2cc(Cl)ccc2Cl)nc2c(CNCC3CCNCC3)nccc12 [Example 115]

>  <target>
Recombinant human JARID1B/KDM5B (Homo sapiens, UniProt Q9UGL1)

>  <inhibition at 0.1 µM>
20 to 50%

$$$$

Prompt: Record request: inhibition at 0.1 µM value, item CC(c1ccccc1)c1ccc(OCc2nc3c(CNCC4CCNCC4)nccc3c(=O)[nH]2)cc1 (stereo not shown) [Example 141]
Response: 20 to 50%

Prompt: How about this compound: O=c1[nH]c(COc2ccc(F)c(Cl)c2)nc2c(CNCC3CCN(CCO)CC3)nccc12 [Example 188]
Response: > 50%

###

molecular target: Recombinant human JARID1B/KDM5B (Homo sapiens, UniProt Q9UGL1); construct: purchased Active Motif 31432; host or cells: Sf9 insect cells; assay: LANCE Ultra TR-FRET demethylase assay with FLAG-tagged JARID1B; format: biochemical; conditions: 100 nM compound; 500 nM biotinylated H3K4me3 peptide substrate
outcome measure: inhibition at 0.1 µM

Consider the reported inhibition at 0.1 µM for these molecules:
>  <molecule>
CN1CCC(CNC(=O)CNCc2nccc3c(=O)[nH]c(COc4ccc(F)c(Cl)c4)nc23)C1 (centres unmarked)

>  <outcome measure>
inhibition at 0.1 µM

>  <value>
20 to 50%

$$$$
>  <molecule>
CC(Oc1ccc(Cc2ccccc2)cc1)c1nc2c(CNCC3CCNCC3)nccc2c(=O)[nH]1 (centres unmarked)

>  <outcome measure>
inhibition at 0.1 µM

>  <value>
20 to 50%

$$$$
>  <molecule>
O=c1[nH]c(COc2ccc(C3CCCC3)cc2)nc2c(CNCC3CCNCC3)nccc12

>  <outcome measure>
inhibition at 0.1 µM

>  <value>
20 to 50%

$$$$
>  <molecule>
O=c1[nH]c(COc2cc(F)cc(F)c2)nc2c(CNCC3CCNCC3)nccc12

>  <outcome measure>
inhibition at 0.1 µM

>  <value>
20 to 50%

$$$$

Prompt: Returns the measured inhibition at 0.1 µM for the input molecule. Input: `O=C(CNCc1nccc2c(=O)[nH]c(COc3ccc(F)c(Cl)c3)nc12)N[C@H]1CCCNC1`
Response: > 50%

Prompt: What do we get for `CCN(CC)CCCCNCc1nccc2c(=O)[nH]cnc12` ?
Response: < 20%

Prompt: Record: `COCCN1CCC(CNCc2nccc3c(=O)[nH]c(COc4ccc(F)c(Cl)c4)nc23)CC1`
Response: > 50%

Prompt: Note, next up: `O=C(CNCc1nccc2c(=O)[nH]c(COc3ccc(F)c(Cl)c3)nc12)N1CCC(N2CCCC2)CC1`
Response: > 50%

Data origin: patent US9834550B2
